test system: M19-MEL melanoma; test: NCI tumour cell line growth inhibition, 48 h
For each record, write down the corresponding TGI.

Below are worked cases with known answers.
compound="N#CC(C#N)=Cc1ccc(C(O)P(=O)(O)O)cc1 (stereo not given)" recorded_metric=TGI reading="> 100 µM"
compound="CCC(C)C(=O)O[C@H]1C(=O)O[C@@H]2C[C@H]3C(C)=CC(=O)[C@@H](O)[C@]3(C)[C@H]3[C@@H](O)[C@H](O)[C@@]4(C)OC[C@]32[C@@H]14 (stereo not given in full)" recorded_metric=TGI reading="0.0909 µM"

Please state, for each entry, its recorded TGI.
1. C1=Nc2ccccc2Cn2nncc21
2. CC12CC/C(=N/NC(N)=O)C3C1CCCC32
3. O=C(O)CCC(=O)Oc1ccc(O)c2c1CCCC2=O

**Result**
> 100 µM
> 100 µM
> 100 µM

====

For each record, write down the corresponding TGI.
tested on: EKVX NSCLC; assay: NCI tumour cell line growth inhibition, 48 h
One number for each entry, in µM.

Please state, for each entry, its recorded TGI.
1. N#Cc1sc2c(c1OC(=O)c1ccc(Cl)cc1)c(=O)n(-c1ccccc1)c(=S)n2-c1ccccc1
2. Cc1cncc(-c2nc(NCCc3c[nH]c4ccccc34)c3ncn(C(C)C)c3n2)c1

**Result**
1. 49.2
2. 35.5

Please state, for each entry, its recorded TGI.
1. Clc1ccc(C2CC(c3cccc(Nc4ccncc4)c3)=NN2c2ccccc2)cc1 (stereo not given)
2. O=C(CN1CCN(CCN2C(=O)c3cccc4cccc(c34)C2=O)CC1)Nc1ccc2ncsc2c1

**Result**
1. 3.12
2. 39.2

====

test system: HCC-2998 colon; test: NCI tumour cell line growth inhibition, 48 h
Recorded metric: TGI (µM)
One number for each entry, in µM.

Below are worked cases with known answers.
molecule="O=C(CC(Cc1ccccc1)c1ccc(Oc2ccccc2)cc1)Nc1cccc(Cl)c1 (stereo not given)" target_of_assay="HCC-2998 colon" reading=31.8
molecule=Cc1ccc(S(=O)(=O)OCC(=O)Nc2ccc(C(=O)O)c(O)c2)cc1 target_of_assay="HCC-2998 colon" reading=88.1

Please state, for each entry, its recorded TGI.
1. CCC[CH2][Sn]1([CH2]CCC)[O]C(=O)CN=C(C)c2ccccc2[O]1
2. CC(=O)OC1CC2C(C)(C)CCC[C@]2(C)C2=C1C(O)=C(C(C)C)C(=O)C2=O (stereo not given in full)

**Result**
1: 2.92; 2: 0.546

====

For each record, write down the corresponding TGI.
system: UACC-62 melanoma; assay: NCI tumour cell line growth inhibition, 48 h

Below are worked cases with known answers.
compound="CCC(C)C(=O)O[C@H]1C(=O)O[C@@H]2C[C@H]3C(C)=CC(=O)[C@@H](O)[C@]3(C)[C@H]3[C@@H](O)[C@H](O)[C@@]4(C)OC[C@]32[C@@H]14 (stereo partly specified)" reading="< 0.0434 µM"
compound=O=S(=O)(O)c1ccc(Nc2ccnc3ccccc23)cc1 reading="> 100 µM"
compound="CC(C)(C)C(O)CC(O)(C(F)(F)F)C(F)(F)F (stereo unspecified)" reading="> 100 µM"

Please state, for each entry, its recorded TGI.
1. COc1ccc(N=N/C(=N\NC(=O)c2cc(Br)ccc2O)c2ccc(N(CCC#N)CCC#N)cc2OC)cc1
2. COc1ccc(C2CC(c3ccccc3)=NN2C(=O)c2cc(OC)c(OC)c(OC)c2)cc1O (stereo unspecified)
3. Cc1cncc(-c2nc(NCCc3c[nH]c4ccccc34)c3ncn(C(C)C)c3n2)c1
4. COC(O)C(=O)c1c2c(cc3c1CCC3)CCC2 (stereo unspecified)
5. COC(=O)C1CC(c2ccc(Cl)cc2)=NO1 (stereo unspecified)
6. O=c1c2cccc(F)c2sc2c(NCCCNCCO)nc3ccccc3c12
7. COC1=CC(=O)c2c(c(COC(C)=O)cn2C)C1=O
8. CC12CCCC(C#N)(C1)OC2=O (stereo unspecified)

**Result**
1. > 150 µg/mL
2. 15.8 µM
3. 12.1 µM
4. > 100 µM
5. > 100 µM
6. 3.26 µM
7. 0.283 µM
8. > 100 µM

FYI, the data here is from PubChem BioAssay (NCI).
